molecular target: Zika virus envelope protein, strain MR766-NIID (Uganda 1947) (Zika virus strain MR766-NIID (Uganda …, UniProt Q32ZE1 291-790))
Sequence (Q32ZE1 291-790 limits assumed): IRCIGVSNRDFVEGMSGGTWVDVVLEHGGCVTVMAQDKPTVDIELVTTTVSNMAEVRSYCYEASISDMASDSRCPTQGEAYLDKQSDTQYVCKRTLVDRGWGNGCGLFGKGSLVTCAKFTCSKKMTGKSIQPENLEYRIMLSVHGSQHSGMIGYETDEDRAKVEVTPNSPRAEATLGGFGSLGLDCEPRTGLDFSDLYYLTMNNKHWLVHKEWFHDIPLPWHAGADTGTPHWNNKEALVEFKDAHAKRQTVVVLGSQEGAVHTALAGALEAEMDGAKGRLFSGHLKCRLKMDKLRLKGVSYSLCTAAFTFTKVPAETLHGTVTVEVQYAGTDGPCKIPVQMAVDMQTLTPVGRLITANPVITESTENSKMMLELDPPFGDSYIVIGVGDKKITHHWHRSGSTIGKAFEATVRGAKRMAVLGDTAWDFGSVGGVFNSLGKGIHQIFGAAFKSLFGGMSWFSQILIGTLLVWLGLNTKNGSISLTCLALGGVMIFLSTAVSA
experimental.endpoint: EC50 (read off the curve)

Prompt: Fill blank: measured EC50 (read off the curve) of the binder mAb 8 (antibody, V domains shown, also called VH.1 / VL.2) VH: EVQLLESGGGLVQPGGSLRLSCAASGFSFSTYSMHWVRQAPGKGLEWVSAISGEGDSAYYADSVKGRFTISRDNSKNTLYLQMNKVRAEDTAVYYCVGGYSNFYYYYTMDAWGQGTMVTVSS VL: DIVMTQSPASLSLSPGERATLSCRATQSISTFLAWYQQKPGQAPRLLIYDASTRASGIPARFSGSRSGTDFTLTITRLEPEDFAVYYCQQRYNWPPYSFGQGTKLEIK is ____.
Response: ~0.03 µg/mL
